Value source: patent US20250051277A1

# protocolDetails: Plasma Stability Assay of Example A3, mouse plasma
# details: 60 min; 5 μM, 37° C.; % of prodrug compound remaining
propertyName: Mouse Plasma Prodrug (%)

[[record]]
compound = "C/C=C(\\C)C(=O)OC1=C[C@@H]2N(C)CC[C@]2(c2ccc(OC)c(OC)c2)CC1"
propertyname = "Mouse Plasma Prodrug (%)"
unittext = "%"
valuemodifier = "="
assayvalue = 0.1

[[record]]
compound = "COc1ccc([C@@]23CCC(OC(=O)c4ccc(C(C)C)cc4)=C[C@@H]2N(C)CC3)cc1OC"
propertyname = "Mouse Plasma Prodrug (%)"
unittext = "%"
valuemodifier = "="
assayvalue = 0

[[record]]
compound = "COc1ccc([C@@]23CCC(OC(=O)c4cccc(C)c4C)=C[C@@H]2N(C)CC3)cc1OC"
propertyname = "Mouse Plasma Prodrug (%)"
unittext = "%"
valuemodifier = "="
assayvalue = 41

[[record]]
compound = "COc1ccc([C@@]23CCC(OC(=O)c4ccc(F)cc4)=C[C@@H]2N(C)CC3)cc1OC"
propertyname = "Mouse Plasma Prodrug (%)"
unittext = "%"
valuemodifier = "="
assayvalue = 0

[[record]]
compound = "COc1ccc([C@@]23CCC(OC(=O)c4c(C)cccc4C)=C[C@@H]2N(C)CC3)cc1OC"
propertyname = "Mouse Plasma Prodrug (%)"
unittext = "%"
valuemodifier = "="
assayvalue = 88

[[record]]
compound = "COc1ccc([C@@]23CCC(OC(=O)c4cccc(C)c4)=C[C@@H]2N(C)CC3)cc1OC"
propertyname = "Mouse Plasma Prodrug (%)"
unittext = "%"
valuemodifier = "="
assayvalue = 0

[[record]]
compound = "COc1ccc([C@@]23CCC(=O)C[C@@H]2N(C)CC3)cc1OC [Compound 001, mesembrine, reference compound]"
propertyname = "Mouse Plasma Prodrug (%)"
unittext = "%"
valuemodifier = ">"
assayvalue = 99

[[record]]
compound = "COc1ccc([C@@]23CCC(OC(=O)C(C)(C)C)=C[C@@H]2N(C)CC3)cc1OC"
propertyname = "Mouse Plasma Prodrug (%)"
unittext = "%"
valuemodifier = "="
assayvalue = 8.2

[[record]]
compound = "COc1ccc([C@@]23CCC(OC(=O)C(c4ccccc4)c4ccccc4)=C[C@@H]2N(C)CC3)cc1OC"
propertyname = "Mouse Plasma Prodrug (%)"
unittext = "%"
valuemodifier = "="
assayvalue = 1.6

[[record]]
compound = "COc1ccc([C@@]23CCC(OC(=O)c4cccc(C(C)(C)C)c4)=C[C@@H]2N(C)CC3)cc1OC"
propertyname = "Mouse Plasma Prodrug (%)"
unittext = "%"
valuemodifier = "="
assayvalue = 0

[[record]]
compound = "C=C(C)C(=O)OC1=C[C@@H]2N(C)CC[C@]2(c2ccc(OC)c(OC)c2)CC1"
propertyname = "Mouse Plasma Prodrug (%)"
unittext = "%"
valuemodifier = "="
assayvalue = 1.3

[[record]]
compound = "COc1ccc([C@@]23CCC(OC(=O)c4ccc(C(F)(F)F)cc4)=C[C@@H]2N(C)CC3)cc1OC"
propertyname = "Mouse Plasma Prodrug (%)"
unittext = "%"
valuemodifier = "="
assayvalue = 0.1

[[record]]
compound = "COc1ccc([C@@]23CCC(OC(=O)C4CC4)=C[C@@H]2N(C)CC3)cc1OC"
propertyname = "Mouse Plasma Prodrug (%)"
unittext = "%"
valuemodifier = "="
assayvalue = 2.2

[[record]]
compound = "COc1ccc([C@@]23CCC(OC(=O)c4ccc(C#N)cc4)=C[C@@H]2N(C)CC3)cc1OC"
propertyname = "Mouse Plasma Prodrug (%)"
unittext = "%"
valuemodifier = "="
assayvalue = 5

[[record]]
compound = "COc1ccc([C@@]23CCC(OC(=O)c4cccc(N(C)C)c4)=C[C@@H]2N(C)CC3)cc1OC"
propertyname = "Mouse Plasma Prodrug (%)"
unittext = "%"
valuemodifier = "="
assayvalue = 0.1

[[record]]
compound = "COc1ccc([C@@]23CCC(OC(=O)c4ccc(N(C)C)cc4)=C[C@@H]2N(C)CC3)cc1OC"
propertyname = "Mouse Plasma Prodrug (%)"
unittext = "%"
valuemodifier = "="
assayvalue = 9.9


###

# details: 0.5 h, 10 μM
propertyName: Prodrug (%) remaining, Human Plasma

[[record]]
molecule = "COc1ccc([C@@]23CCC(OC(=O)CC(C)(C)C)=C[C@@H]2N(C)CC3)cc1OC [Compound 431]"
valuemodifier = "="
assayvalue = 69.0

[[record]]
molecule = "COc1ccc([C@@]23CCC(OC(=O)c4ccc(C(C)C)cc4)=C[C@@H]2N(C)CC3)cc1OC [Compound 371]"
valuemodifier = "="
assayvalue = 94.4

[[record]]
molecule = "CCC(C)(C)C(=O)OC1=C[C@@H]2N(C)CC[C@]2(c2ccc(OC)c(OC)c2)CC1 [Compound 428]"
valuemodifier = "="
assayvalue = 74.5

[[record]]
molecule = "CCCC(C)(C)C(=O)OC1=C[C@@H]2N(C)CC[C@]2(c2ccc(OC)c(OC)c2)CC1 [Compound 429]"
valuemodifier = "="
assayvalue = 96.3

[[record]]
molecule = "COc1ccc([C@@]23CCC(OC(=O)c4cccc(C)c4)=C[C@@H]2N(C)CC3)cc1OC [Compound 374]"
valuemodifier = ">"
assayvalue = 99

[[record]]
molecule = "CCC(C)(CC)C(=O)OC1=C[C@@H]2N(C)CC[C@]2(c2ccc(OC)c(OC)c2)CC1 [Compound 430]"
valuemodifier = ">"
assayvalue = 99

[[record]]
molecule = "COc1ccc([C@@]23CCC(OC(=O)CCC(C)C)=C[C@@H]2N(C)CC3)cc1OC [Compound 399]"
valuemodifier = "="
assayvalue = 1.1


###

# protocolDetails: Plasma Stability Assay of Example A3, human plasma
# details: 240 min; 5 μM, 37° C.; % of prodrug compound remaining
Property: Human Plasma Prodrug (%); scope: individual compounds
propertyName: Human Plasma Prodrug (%)

[[record]]
compound = "COc1ccc([C@@]23CCC(OC(=O)C(c4ccccc4)c4ccccc4)=C[C@@H]2N(C)CC3)cc1OC"
unittext = "%"
valuemodifier = "="
assayvalue = 13.8

[[record]]
compound = "COc1ccc([C@@]23CCC(OC(=O)c4cccc(C)c4)=C[C@@H]2N(C)CC3)cc1OC"
unittext = "%"
valuemodifier = "="
assayvalue = 11

[[record]]
compound = "COc1ccc([C@@]23CCC(OC(=O)C4CC4)=C[C@@H]2N(C)CC3)cc1OC"
unittext = "%"
valuemodifier = "="
assayvalue = 13.8

[[record]]
compound = "COc1ccc([C@@]23CCC(=O)C[C@@H]2N(C)CC3)cc1OC [Compound 001, mesembrine, reference compound]"
unittext = "%"
valuemodifier = ">"
assayvalue = 99

[[record]]
compound = "COc1ccc([C@@]23CCC(OC(=O)C(C)(C)C)=C[C@@H]2N(C)CC3)cc1OC"
unittext = "%"
valuemodifier = "="
assayvalue = 2.0


###

# protocolDetails: Plasma Stability Assay of Example A3, human plasma
# details: 15 min; 5 μM, 37° C.; % of prodrug compound remaining
propertyName: Human Plasma Prodrug (%)

[[record]]
compound = "COc1ccc([C@@]23CCC(OC(=O)c4ccc(C(C)C)cc4)=C[C@@H]2N(C)CC3)cc1OC [Compound 371]"
propertyname = "Human Plasma Prodrug (%)"
assayvalue = "99%"

[[record]]
compound = "COc1ccc([C@@]23CCC(OC(=O)C(c4ccccc4)c4ccccc4)=C[C@@H]2N(C)CC3)cc1OC [Compound 306]"
propertyname = "Human Plasma Prodrug (%)"
assayvalue = "89.5%"

[[record]]
compound = "COc1ccc([C@@]23CCC(OC(=O)c4cccc(N(C)C)c4)=C[C@@H]2N(C)CC3)cc1OC [Compound 307]"
propertyname = "Human Plasma Prodrug (%)"
assayvalue = "88.5%"

[[record]]
compound = "COc1ccc([C@@]23CCC(OC(=O)c4ccc(F)cc4)=C[C@@H]2N(C)CC3)cc1OC [Compound 353]"
propertyname = "Human Plasma Prodrug (%)"
assayvalue = "95.4%"

[[record]]
compound = "COc1ccc([C@@]23CCC(OC(=O)C(C)(C)C)=C[C@@H]2N(C)CC3)cc1OC [Compound 309]"
propertyname = "Human Plasma Prodrug (%)"
assayvalue = "64.5%"

[[record]]
compound = "COc1ccc([C@@]23CCC(OC(=O)c4ccc(C#N)cc4)=C[C@@H]2N(C)CC3)cc1OC [Compound 354]"
propertyname = "Human Plasma Prodrug (%)"
assayvalue = "93%"

[[record]]
compound = "C=C(C)C(=O)OC1=C[C@@H]2N(C)CC[C@]2(c2ccc(OC)c(OC)c2)CC1 [Compound 315]"
propertyname = "Human Plasma Prodrug (%)"
assayvalue = "16.6%"


###

# Format: physicochemical
# details: SGF with pepsin, pH 1.5, 37° C., 0.5 mM; time 30 min
propertyName: Condition 1 Conversion (%)

[[record]]
compound = "COc1ccc([C@@]23CCC(=NNC(=O)Nc4cccc(O)c4)C[C@@H]2N(C)CC3)cc1OC"
unittext = "%"
assayvalue = 100

[[record]]
compound = "COc1ccc([C@@]23CC/C(=N\\NC(=O)c4ccccc4C(=O)O)C[C@@H]2N(C)CC3)cc1OC"
unittext = "%"
assayvalue = 100

[[record]]
compound = "COc1ccc([C@@]23CCC(=NNc4ncccc4C)C[C@@H]2N(C)CC3)cc1OC"
unittext = "%"
assayvalue = 14.91

[[record]]
compound = "COc1ccc([C@@]23CCC(=NNCc4cccnc4)C[C@@H]2N(C)CC3)cc1OC"
unittext = "%"
assayvalue = 100

[[record]]
compound = "CCCC1CO[C@]2(CC[C@@]3(c4ccc(OC)c(OC)c4)CCN(C)C3C2)O1 (stereo partly shown)"
unittext = "%"
assayvalue = 0

[[record]]
compound = "COc1ccc([C@@]23CCC(=NNc4ccc(Cl)cc4)C[C@@H]2N(C)CC3)cc1OC"
unittext = "%"
assayvalue = 2.9

[[record]]
compound = "COc1ccc(C23CCC(=NNC(=O)Nc4ccccc4)C[C@@H]2N(C)CC3)cc1OC (stereo in doubt)"
unittext = "%"
assayvalue = 1

